GI50 values, listed per item
- System: A498
- experiment_description: NCI tumour cell line growth inhibition, 48 h
Active and inactive are the calls of the source. No stated cut-off is given here; in the data, active = GI50 up to about 1.1 µM and inactive = higher.
measurement_kind: GI50

# molecule, result
measured = [
    ("ClCCCN1CCN(CCCl)CC1", "261 µM (inactive)"),
    ("C=C1C(=O)OC2CCN3CC=C(COC(=O)C(C)(O)C4(CO4)C1C)C23 (stereo not given)", "> 100 µM (inactive)"),
    ("CC1(C)C2CCC(N)(C2)C1O (stereo not given)", "> 100 µM (inactive)"),
    ("CCOC(=O)C#Cc1cccc(C#CC(=O)OCC)c1", "12.5 µM (inactive)"),
    ("C=CCCC1(CC(Sc2ccccc2)P(=O)(c2ccccc2)c2ccccc2)OCCO1 (stereo not given)", "> 10 µM (inactive)"),
    ("CCCCCCCCCCCCCCCCCCNc1ccn(C2OC(COP(=O)(O)OCC3OC(n4cc(F)c(NCCCCCCCCCCCCCCCCCC)nc4=O)CC3O)C(O)C2O)c(=O)n1 (stereo not given)", "25.8 µM (inactive)"),
    ("CCSC1=N/C(=C\\c2ccc(N(C)C)cc2)C(Cl)=N1", "> 100 µM (inactive)"),
    ("COc1cc(C(=O)O[C@H]2CCC3CCC2N3C)cc(OC)c1OC (stereo not given in full)", "36.3 µM (inactive)"),
    ("CC(C)OP(=O)(OC(C)C)/C(=N/Nc1ccc([N+](=O)[O-])cc1)Nc1ccc(N/C(=N\\Nc2ccc([N+](=O)[O-])cc2)P(=O)(OC(C)C)OC(C)C)cc1", "16.4 µM (inactive)"),
    ("N#Cc1c(Cl)c2ccccc2n2c1nc1ccccc12", "> 100 µM (inactive)"),
]

====

- Test system: HT-29
- experiment_description: NCI tumour cell line growth inhibition, 48 h
Activity calls are given as the source filed them. Rule as the data show it: active = GI50 up to about 1.1 µM and inactive = higher.
GI50 values, listed per item
measurement_kind: GI50

# compound, result
measured = [
    ("CNC(=O)OCc1c(COC(=O)NC)c(C)n(-c2ccc(Br)cc2)c1C", "5.57 µM (inactive)"),
    ("O=C(/C(=C\\C(=O)c1cccs1)c1ccsc1)c1ccc(Br)cc1", "80 µM (inactive)"),
    ("C1OC1CN1CCN(CC2CO2)CC1 (stereo not given)", "> 100 µM (inactive)"),
    ("Cc1cc(C)c2c(=N)c3ccccc3n(CCCCCCCCn3c4ccccc4c(=N)c4c(C)cc(C)nc43)c2n1", "0.224 µM (active)"),
    ("Cc1ccc(C(=O)N/N=C(\\N=N\\c2ccc(C(=O)O)cc2)c2ccc(N(CCC#N)CCC#N)cc2C)cc1", "> 100 µM (inactive)"),
    ("Nc1ccc2n[se]nc2c1", "> 100 µM (inactive)"),
    ("O=[N+]([O-])/C(C(Cl)=C(Cl)Cl)=C1\\NCCS1", "47.8 µM (inactive)"),
    ("O=c1c2cc([N+](=O)[O-])ccc2n2n1Cc1ccccc1CC2", "> 100 µM (inactive)"),
    ("CC[C@@]1(O)C(=O)OCc2c1cc1n(c2=O)Cc2c-1nc1ccccc1c2/C=N\\NC(=O)C1CCCN1 (stereo not given in full)", "1.15 µM (inactive)"),
    ("COC(=O)c1cc2ccccc2c2nc3ccccc3c(Cl)c12", "> 100 µM (inactive)"),
]

Provenance of the data: ChEMBL document CHEMBL1201862
